Biological target: recombinant human NK3 receptor (Homo sapiens, UniProt P29371)
Construct: expressed in transfected cells; host or cells: HEK293 cells, transient expression; membranes
Sequence (P29371 1-465): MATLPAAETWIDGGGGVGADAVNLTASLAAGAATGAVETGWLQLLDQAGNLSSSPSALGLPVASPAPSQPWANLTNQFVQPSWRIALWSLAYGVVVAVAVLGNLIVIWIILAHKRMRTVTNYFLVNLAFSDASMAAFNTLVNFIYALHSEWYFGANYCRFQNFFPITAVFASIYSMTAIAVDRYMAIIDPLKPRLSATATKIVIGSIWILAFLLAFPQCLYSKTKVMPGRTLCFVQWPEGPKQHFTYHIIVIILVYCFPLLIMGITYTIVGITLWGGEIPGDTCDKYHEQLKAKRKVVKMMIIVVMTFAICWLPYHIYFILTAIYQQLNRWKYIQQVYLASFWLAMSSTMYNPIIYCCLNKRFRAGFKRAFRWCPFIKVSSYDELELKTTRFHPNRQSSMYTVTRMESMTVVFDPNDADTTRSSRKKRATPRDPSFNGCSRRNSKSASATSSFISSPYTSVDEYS
Assay: [3H]SR142801 competition binding assay
metric: Ki (nM)
Kindly answer with a numeric value in nM, unit omitted.

Examples with their reported Ki follow.
CC(C)N1CC(C(=O)N2CCC(C(=O)N3C[C@@H](N(C)C(=O)Oc4ccc(F)cc4)[C@H](c4ccc(Cl)c(Cl)c4)C3)CC2)CCC1=O (stereo partly shown) [Example 282] | 2
CN(C(=O)Oc1ccc(F)cc1)[C@H]1CN(C(=O)CCN2CCCC2=O)C[C@@H]1c1ccc(Cl)c(Cl)c1 (racemic) [Example 56] | 61.3
CN(C(=O)Oc1ccc(F)cc1)[C@@H]1CN(C(=O)C2CCN(c3ccc(Cl)cn3)CC2)C[C@H]1c1ccc(F)c(Cl)c1 [Example 316] | 0.9

Item under review: CN(C(=O)OCCCC(F)(F)C(F)(F)F)[C@H]1CN(C(=O)C2CCN(C(=O)C3(C)CC3)CC2)C[C@@H]1c1ccc(Cl)c(Cl)c1 (racemic) [Example 88] . Reported Ki?
8.3

Item under review: CN(C(=O)Oc1ccc(F)cc1)[C@@H]1CN(C(=O)C2CCN(C(=O)C3CC(F)C3)CC2)C[C@H]1c1ccc(F)cc1 (stereo partly shown) [Example 287] . Reported Ki?
7.2

Item under review: CN(C(=O)Oc1ccc(F)cc1)[C@@H]1CN(C(=O)C2CCN(C(=O)C3(C)COC3)CC2)C[C@H]1c1ccc(F)cc1 [Example 286] . Reported Ki?
25.4

Item under review: CCCCOC(=O)N(C)[C@H]1CN(C(=O)C2CCN(CC3CC3)CC2)C[C@@H]1c1ccc(Cl)c(Cl)c1 (racemic) [Example 11] . Reported Ki?
27.1

Item under review: CC(C)COC(=O)N(C)[C@@H]1CN(C(=O)C2CCN(C(=O)C3(C)CC3)CC2)C[C@H]1c1ccc(Cl)cc1 [Example 141] . Reported Ki?
13.5

Item under review: CN(C(=O)Oc1ccc(F)cc1)[C@@H]1CN(C(=O)C2CCN(c3ncccc3C#N)CC2)C[C@H]1c1ccc(Cl)cc1 [Example 186] . Reported Ki?
6

Item under review: CC1(C(=O)N2CCC(C(=O)N3C[C@H](NC(=O)Oc4ccc(F)cc4)[C@@H](c4ccc(Cl)c(Cl)c4)C3)CC2)CC1 (racemic) [Example 43] . Reported Ki?
3.4

Item under review: CN(C(=O)Oc1ccc(F)cc1)[C@@H]1CN(C(=O)C2CCS(=O)(=O)CC2)C[C@H]1c1ccc(Cl)cc1 [Example 93] . Reported Ki?
6.6

Item under review: CCC(C)OC(=O)N(C)[C@@H]1CN(C(=O)C2CCN(c3ccc(C#N)cn3)CC2)C[C@H]1c1ccc(Cl)cc1 (stereo partly shown) [Example 157] . Reported Ki?
27.1

Item under review: CN(C(=O)O[C@@H]1C[C@H]2CC[C@@H]1C2)[C@H]1CN(C(=O)C2CCN(C(=O)C3(C)CC3)CC2)C[C@@H]1c1ccc(Cl)c(Cl)c1 (mixture of isomers) [Example 69] . Reported Ki?
7.6
